# System: SN12C
# protocol details: NCI tumour cell line growth inhibition, 48 h
The source made the active and inactive calls. No stated cut-off is given here; in the data, active = GI50 up to about 1.1 µM and inactive = higher.
measured attribute: GI50

These recorded examples may help you get a feel for the data.
- molecule: "CC(C)c1c2[nH]c3ccccc3c2c(C(C)C)c2[nH]c3ccccc3c12"
  system: "SN12C"
  GI50: "35.6 µM (inactive)"
- molecule: "Cc1nc(N2N=C(c3ccc(Cl)cc3)CCC2=O)sc1[N+](=O)[O-]"
  system: "SN12C"
  GI50: "> 100 µM (inactive)"
- molecule: "Cc1ccc2c(/C=C/c3ccc(N(C)C)cc3)ccc(C(C)C)cc1-2"
  system: "SN12C"
  GI50: "> 100 µM (inactive)"
- molecule: "O=S(=O)(/N=C(\\NO)Nc1ccc(Cl)cc1)C1CC=C(c2ccon2)S1 (stereo not drawn)"
  system: "SN12C"
  GI50: "18.2 µM (inactive)"
- molecule: "C[C@]12C=CC(=O)C=C1[C@@H](F)C[C@H]1[C@@H]3CC[C@](O)(C(=O)CO)[C@@]3(C)C[C@H](O)[C@@]12F"
  system: "SN12C"
  GI50: "> 100 µM (inactive)"
- molecule: "Fc1ccccc1C1CC(c2ccc3ccccc3c2)=Nc2ccccc2S1 (stereo not drawn)"
  system: "SN12C"
  GI50: "> 100 µM (inactive)"
- molecule: "CCOC(=O)/C=C(/C(=O)OCC)n1ccc(N)nc1=O"
  system: "SN12C"
  GI50: "> 100 µM (inactive)"

Bench note: what GI50 did COC(=O)c1ccccc1Nc1ccccc1C(=O)OC show? > 100 µM (inactive)

* * *

# Test system: RPMI-8226
# protocol details: NCI tumour cell line growth inhibition, 48 h
Calls of active or inactive are those of the source. Cut-off read from the data, not from the text of the source: active = GI50 up to about 1.1 µM and inactive = higher.
// allowed return values: active, inactive

Check out these entries, answers already filled in.
- molecule: "O=C(CCNC12CC3CC(CC(C3)C1)C2)c1ccccc1"
  system: "RPMI-8226"
  category label: "inactive"
- molecule: "C#CC(O)/C=C/C(O)CCCC(O)CC#CC(O)C#CCCCCC(O)/C=C/CCCCCC(=O)CCCCCCCCCCCCCC(O)C(O)C#CC(=O)O (stereo unspecified)"
  system: "RPMI-8226"
  category label: "inactive"
- molecule: "CCOP(=O)(COCCn1nc(Br)c(=O)[nH]c1=O)OCC"
  system: "RPMI-8226"
  category label: "inactive"
- molecule: "O=C(NNC(=O)c1ccco1)c1ccco1"
  system: "RPMI-8226"
  category label: "inactive"
- molecule: "Cc1ccc(C)c(NC(=O)C(=O)C(C(=O)c2ccc3ccccc3c2)C2OC(=O)c3ccccc32)c1 (stereo unspecified)"
  system: "RPMI-8226"
  category label: "inactive"

Please state the recorded outcome for this molecule: CCCCCC/C=C\CCCCCCCCCC1=C(CN2CCN(C)CC2)C(=O)C=C(OC)C1=O inactive

Please state the recorded outcome for this molecule: COc1cc(-c2nccc3cc(OC)c(OC)cc23)ccc1O inactive

* * *

# Test system: Malme-3M
# protocol details: NCI tumour cell line growth inhibition, 48 h
Activity calls are given as the source filed them. No stated cut-off is given here; in the data, active = GI50 up to about 1.1 µM and inactive = higher.
Recorded GI50, one value per entry.

These recorded examples may help you get a feel for the data.
- compound: "O=C(c1ccccc1)c1ccc2[nH]c(-c3c(Cl)c(Cl)c(Cl)c(Cl)c3C(=O)N/N=C/c3ccccc3)nc2c1"
  test value: "26.1 µM (inactive)"
- compound: "COC(=O)C1=C(C[S+]([O-])c2ccc([N+](=O)[O-])cc2[N+](=O)[O-])ON(C)C1c1ccccc1 (stereo not drawn)"
  test value: "> 84.5 µM (inactive)"
- compound: "Nc1ncnc2c1ccn2CC=C(CO)CO"
  test value: "> 100 µM (inactive)"
- compound: "O=[N+]([O-])c1ccccc1/C=N/C12CC3CC(CC(C3)C1)C2"
  test value: "66.1 µM (inactive)"
- compound: "c1ccc2c(c1)NC1(N3CCCCC3)CCCCC21 (stereo not drawn)"
  test value: "58.2 µM (inactive)"

Bench note: what GI50 did CC(C)(Cc1ccccc1)Cc1cc(O)ccc1O show? 16.8 µM (inactive)

Bench note: what GI50 did O=C(O)C1=C(CO)Oc2cc3c(cc2C1c1ccc2c(c1)OCO2)OCO3 (stereo not drawn) show? > 100 µM (inactive)

Bench note: what GI50 did O=Cc1c(Cn2ccnc2)c2cc([N+](=O)[O-])ccc2n1Cc1ccccc1 show? > 100 µM (inactive)
